Give %Inh for every item shown.
tested on: AKT2; conditions: concentration: 1 μM, replicates: in singlicate; n = 1;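 note: KINOMEscan kinase panel screen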
Numbers only, in %.

A selection of reference data follows.
COc1ccc(-c2cc3c(C)nc(N)nc3n([C@H]3CC[C@H](O)CC3)c2=O)cn1; 0
CN1C(=O)C(Nc2cc(Cl)c(O)c(Cl)c2)=C(c2ccc(Cl)cc2)C1=O [SB-404321]; 0
Cc1nnc(-c2ccc(C)c(-c3ccc(C(=O)O)cc3)c2)o1 [GW608005]; 6
Cc1cccc(-c2nc(Nc3ccc4c(cnn4C)c3)c3ccccc3n2)n1 [GW876731]; 0
COc1cc2nccc(Nc3cccc(Oc4ccccc4)c3)c2cc1OC.Cl [GW284543]; 7
COc1cc2ncn(-c3cc(OCCCc4ccccc4)c(C(N)=O)s3)c2cc1OC [GSK205189]; 2
COc1cccc(C2=C(N(C)c3ccccc3)C(=O)NC2=O)c1 [SB-334865]; 13
CCC(=O)c1c(-c2ccccc2)c2cc(Cl)ccc2c(=O)n1Cc1ccc(C(=O)O)cc1; 0

Moving on to the next molecule.
What %Inh value was documented for this molecule, O=C(Nc1ccc2c(c1)OCO2)NC1CCN(c2ccnc(NCc3ccc(F)cc3)n2)CC1 [GSK1379859] ?
5

---

test system: MAP3K2; conditions: concentration: 1 μM, replicates: in singlicate; n = 1
measuredEndpoint: %Inh (%)
Answers are plain numbers, in %.

A selection of reference data follows.
CN(C)c1cc(-c2ccc3c(N)n[nH]c3c2)nc(N)n1 [GSK2219329]; 0
O=C(Nc1ccc2c(c1)OCO2)NC1CCN(c2ccnc(NCc3ccc(F)cc3)n2)CC1 [GSK1379859]; 0
Cc1cccc(-c2nc(Nc3ccc4c(cnn4C)c3)c3ccccc3n2)n1 [GW876731]; 12
CCc1ccc(-c2ccc3c(c2)-c2nn(C)cc2S(=O)(=O)N3C)cc1; 0

What %Inh value was documented for this compound, Cc1cc(Nc2nc(-c3cccc(C)n3)nc3ccccc23)ccn1 [GW872411] ?
0

---

tested on: SLK; conditions: concentration: 1 μM, replicates: in singlicate; n = 1
measuredEndpoint: %Inh (%)
Give bare numbers, in %.

CN1C(=O)C(Nc2ccccc2)=C(c2ccccc2)C1=O; 0
COc1ccc(Nc2nccc(N3CCC(NS(=O)(=O)c4ccc(NC(C)=O)cc4)C3)n2)cc1 (stereo not drawn); 18
C[C@@H]1CC[C@H](C(=O)NC2CCCCC2)CN1c1cc(-c2ccc3c(N)n[nH]c3c2)nc(N)n1; 20
CCCNC(=O)Nc1ccc(Oc2ncnc3ccn(C)c23)cc1; 0
Nc1nc(-c2ccccc2F)c(-c2ccnc3ccccc23)s1; 4

Moving on to the next compound.
Request: %Inh, test system SLK, entry "CCC(=O)c1c(-c2ccccc2)c2cc(Cl)ccc2c(=O)n1Cc1cc(S(C)(=O)=O)n(CC(N)=O)n1"
0

---

Give %Inh for every item shown.
test system: TIE1; details: concentration: 1 μM, replicates: in singlicate; n = 1
Give bare numbers, in %.

A selection of reference data follows.
CCS(=O)(=O)c1ccc(OC)c(Nc2ncc(-c3ccc(F)cc3)o2)c1.Cl; 0
Nc1nc(N)c2nc(-c3ccccc3)[nH]c2n1; 26
COc1cc2nccc(Nc3ccc(OCc4ccc(NC(C)=O)cc4)cc3)c2cc1OC.Cl; 1
COc1cc2nccc(Nc3cccc(Oc4ccccc4)c3)c2cc1OC.Cl; 9

Moving on to the next compound.
What %Inh value was documented for this compound, "Nc1ncnc2c1ncn2-c1ccc(Cl)cc1" ?
0
